Assign FWHM to each entry below.
- ASSAY: Dyad photophysical properties in toluene, excited at 405 nm
- Type: physicochemical
- TEST_CONTEXT: emission peak, room temperature, excited at 405 nm
Form entry: value (nm) — number only.

What FWHM value was documented for this compound, COC(=O)c1ccc(-c2c3nc(cc4[nH]c(cc5nc(cc6[nH]c2cc6-c2ccc(CNC(=O)c6ccc(C7=C8C=CC(=N8)C=c8ccc9[n]8[Zn][n]8c(ccc87)C=C7C=CC(=N7)C=9)cc6)cc2)CC5(C)C)cc4-c2ccccc2)C=C3)cc1 [P2-C1, methyl ester] ?
18

What FWHM value was documented for this compound, COC(=O)c1ccc(-c2c3nc(cc4ccc(cc5nc(cc6[nH]c2cc6C#Cc2ccc(C6=C7C=CC(=N7)C=c7ccc8[n]7[Zn][n]7c(ccc76)C=C6C=CC(=N6)C=8)cc2)CC5(C)C)[nH]4)C=C3)cc1 ?
15

What FWHM value was documented for this compound, COc1c2nc(cc3ccc([nH]3)c(-c3ccc(-c4c5nc(cc6ccc(cc7nc(cc8ccc4[nH]8)C=C7)[nH]6)C=C5)cc3)c3nc(cc4ccc1[nH]4)C(C)(C)C3)C(C)(C)C2 ?
15

What FWHM value was documented for this compound, COC(=O)c1ccc(C2=c3ccc4[n]3[Zn][n]3c(ccc3C(c3ccc(C#Cc5ccc(C6=c7ccc8[n]7[Zn][n]7c(ccc7C=C7N=C(C=8)CC7(C)C)C=C7C=CC6=N7)cc5)cc3)=C3C=CC(=N3)C=4)C=C3C=CC2=N3)cc1 ?
14
